// provenance: ChEMBL document CHEMBL4043243

- Species: Rattus norvegicus
- TEST: Inhibition of Sprague-Dawley rat lenses ALR2 at 10 uM using DL-glyceraldehyde as substrate pretreated for 10 mins followed by substrate addition measured for 5 mins by spectrophotometric analysis relative to control
Calls of active or inactive are those of the source. The rule behind the calls is not given here.
QUANTITY: inhibition

Known inhibition results, listed for orientation:
## Input Query: inhibition; subject: "Cc1ccc(-n2c(COc3ccc(/C=C4/SC(=S)NC4=O)cc3)nc3ccccc3c2=O)cc1"
## Output inactive

## Input // query inhibition value for entry "O=C1NC(=S)S/C1=C/c1ccc(OCc2nc3ccccc3c(=O)n2-c2ccc(Cl)cc2)cc1"
## Output inactive

## Input Dear colleague, I am looking for the recorded inhibition of the following compound: "O=C1NC(=S)S/C1=C/c1ccc(OCc2nc3ccccc3c(=O)n2-c2ccc(F)cc2)cc1"
## Output 39.2%

## Input If you can, please state the reported inhibition value of "O=C1NC(=S)S/C1=C/c1ccc(OCc2nc3ccccc3c(=O)n2-c2ccc(Br)cc2)cc1" .
## Output inactive

## Input What value of measured inhibition is listed for "COc1cc(/C=C2/SC(=S)NC2=O)ccc1OCc1nc2ccccc2c(=O)n1-c1ccccc1" ?
## Output 62.9%

## Input Given the compound "COc1ccc(-n2c(COc3ccc(/C=C4/SC(=S)NC4=O)cc3)nc3ccccc3c2=O)cc1" , what is its reported inhibition?
## Output 52.7%

Moving on to the next compound.
## Input // returns reported inhibition for input "O=C1NC(=S)S/C1=C/c1ccc(OCc2nc3ccccc3c(=O)n2-c2ccccc2)cc1"
## Output 48.5%
